biological target: cynomolgus monkey EpoR (cynoEpoR) (cynomolgus monkey); test: SPR, Biacore T100; scFv-Fc captured by anti-human IgG Fc on CM5 chip, EpoR as analyte
Sequence (chain, as listed by the source): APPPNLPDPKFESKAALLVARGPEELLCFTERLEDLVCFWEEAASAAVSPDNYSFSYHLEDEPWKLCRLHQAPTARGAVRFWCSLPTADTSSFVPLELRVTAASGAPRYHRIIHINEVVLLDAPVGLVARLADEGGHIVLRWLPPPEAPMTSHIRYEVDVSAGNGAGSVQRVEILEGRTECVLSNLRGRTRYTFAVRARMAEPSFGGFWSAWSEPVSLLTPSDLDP
The threshold is 40000 M⁻¹ s⁻¹. Values of kon beneath it are tagged Condition met; values meeting or exceeding it are tagged Condition not met.

• clone 13 scFv-Fc protein (Fc fusion, part only; not given: scFv linker and IgG1 Fc, not shown: a dimerising Fc or GST) scFv, part: QVQLQQSGGGVVQPGRSLRLSCAASGFTFSDYAMHWVRQAPGKGLEWVAVISNHGKSTYYADSVKGRFTISRDNSKHMLYLQMNSLRADDTALYYCARDIALAGDYWGQGTLVTVSADIQMTQSPSSLSASVGDRVTITCRASQSISSYLNWYQQLPGKVPKLLIYGASKLQSGVPSRFSGSGSGTDFTLTISSLQPEDFATYYCLQDYNYPLTFGPGTRLEIK = Condition not met
• clone 307 scFv-Fc protein (Fc fusion, part only; not given: scFv linker and IgG1 Fc, not shown: a dimerising Fc or GST) scFv, part: EVQLVESGGGLVQPGGSLRLSCAVSGFTFSKYWMTWVRQAPGKGLEWVANIKPDGSEKYYVESVKGRFTISRDNAKNSVYLQMNSVRAEDTAVYYCARVSRGGSFSDWGQGTMVTVSSQSVLTQPPSASGSPGQSVTISCTGTSSDVGGYNYVSWYQQHPDKAPRLMIYDVNKRPSGVPDRFSGSKSGNTASLTVSGLQAEDEAHYYCNSYAGSNNWVFGGGTQLTVL = Condition not met
• clone 201 scFv-Fc protein (Fc fusion, part only; not given: scFv linker and IgG1 Fc, not shown: a dimerising Fc or GST) scFv, part: QVQLQESGSGLARPSQTLSLTCAVSGGSISSSAFSWNWIRQPPGKGLEWIGYIYHTGITDYNPSLKSRVTISVDRSKNQFSLNVNSVTAADTAVYYCARGHGSDPAWFDPWGKGTLVTVSSQSVLTQPPSVSVSPGQTASITCSGDKLGDKYASWYQQRPGQSPVLVIYRDTKRPSGIPERFSGSNSGNTATLTISGTQAVDEADYYCQAWDSTTSLVFGGGTKLTVL = Condition met

Below 40000 M⁻¹ s⁻¹ on kon? Entry clone 330 scFv-Fc protein (Fc fusion, part only; not given: scFv linker and IgG1 Fc, not shown: a dimerising Fc or GST) scFv, part: EVQLVESGGGLVQPGGSLRLSCAVSGFTFSKYWMTWVRQAPGKGLEWVANIKPDGSEKYYVESVKGRFTISRDNAKNSVYLQMNSVRAEDTAVYYCARVSRGGSFSDWGQGTLVTVSSQSALTQPPSASGSPGQSVTISCTGTSSDVGAYNYVSWYQQHPGKAPKLMIYEVARRPSGVPDRFSGSKSGNTASLTVSGLQAEDEADYYCSSYAGSNNFAVFGRGTKLTVL
Condition not met

Below 40000 M⁻¹ s⁻¹ on kon? Entry clone 319 scFv-Fc protein (Fc fusion, part only; not given: Linker and IgG1 Fc, not shown: another chain or arm of the molecule; a dimerising Fc or GST; small tags and cut ends) VH: QVQLVQSGAEIKKPGASVKVSCKTFGSPFSTNDIHWVRQAPGQGLEWMGIIDTSGAMTRYAQKFQGRVTVTRETSTSTVYMELSSLKSEDTAVYYCAREGCTNGVCYDNGFDIWGQGTLVTVSS VL: DIQMTQSPSTLSASIGDRVTITCRASEGIYHWLAWYQQKPGKAPKLLIYKASSLASGAPSRFSGSGSGTDFTLTISSLQPDDFATYYCQQYSNYPLTFGGGTKLEIK
Condition not met

Below 40000 M⁻¹ s⁻¹ on kon? Entry clone 15 scFv-Fc protein (Fc fusion, part only; not given: scFv linker and IgG1 Fc, not shown: a dimerising Fc or GST) scFv, part: QVQLQESGPGLVRPSGTLSLTCAVSGGSIGSSNWWSWVRQAPGKGLEWIGEISQSGSTNYNPSLKGRVTISLDRSRNQLSLKLSSVTAADTAVYYCARQLRSIDAFDIWGPGTTVTVSASYVLTQPPSVSVSPGLTATITCSGDKLGDKYASWYQQKPGQSPVLVIYQDRKRPSGIPERFSGSNSGNTATLTISGTQAVDEADYYCQAWDSDTSYVFGTGTQLTVL
Condition met

Below 40000 M⁻¹ s⁻¹ on kon? Entry clone 16 scFv-Fc protein (Fc fusion, part only; not given: scFv linker and IgG1 Fc, not shown: a dimerising Fc or GST) scFv, part: QVQLQESGPGLVKPSETLSLTCTVSGGYINNYYWSWIRQPPGKGLEWIGYIHYSGSTYYNPSLKSRVTISEDTSKNQFSLKLSSATAADTAVYYCARVGYYYDSSGYNLAWYFDLWGRGTLVTVSASSELTQDPAVSVALGQTVRITCQGDNLRSYSATWYQQKPGQAPVLVLFGENNRPSGIPDRFSGSKSGDTAVLTITGTQTQDEADYYCTSRVNSGNHLGVFGPGTQLTVL
Condition not met
